# System: HT-29
# assay text: Diffusion coefficient, D in HT29 multicellular layers
# Type: ADME, cell-based
# condition context: human
quantity measured: D (cm²/s)
Give just the number in cm²/s; leave the unit off.

Examples with their reported D follow.
| compound | target system | D, cm²/s |
| --- | --- | --- |
| CN(C)CCNc1n[n+]([O-])c2ccc(C(C)(C)C)cc2[n+]1[O-] | HT-29 | 8.63e-07 |
| Cc1ccc2c(c1)[n+]([O-])c(NCCN1CCCCC1)n[n+]2[O-] | HT-29 | 7.49e-07 |
| CC1CCCC(C)N1CCNc1n[n+]([O-])c2ccccc2[n+]1[O-] (configuration not stated) | HT-29 | 6.81e-07 |
| CCCN(CCC)CCNc1n[n+]([O-])c2ccccc2[n+]1[O-] | HT-29 | 1.71e-06 |
| Nc1n[n+]([O-])c2ccccc2[n+]1[O-] | HT-29 | 4.04e-07 |

INPUT: Report measured D; entry is `COc1ccc2c(c1)[n+]([O-])c(NCCN(C)C)n[n+]2[O-]`
OUTPUT: 2.32e-07

INPUT: Report measured D; entry is `CCCN(CCC)CCNc1n[n+]([O-])c2ccc(C)cc2[n+]1[O-]`
OUTPUT: 1.48e-06

###

# System: HT-29
# assay text: Diffusion coefficient, D in HT29 multicellular layers
# Format: ADME, cell-based
# condition context: human
A collection of compounds and their measured D
Give just the number in cm²/s; leave the unit off.

| compound | meas value |
| --- | --- |
| [O-][n+]1nc(NCCN2CCCCC2)[n+]([O-])c2cc(Cl)ccc21 | 1.1e-06 |
| Cc1ccc2c(c1)[n+]([O-])c(NCCN1CCOCC1)n[n+]2[O-] | 4.52e-07 |
| CC(C)(C)c1ccc2c(c1)[n+]([O-])c(NCCN1CCCCC1)n[n+]2[O-] | 1.5e-06 |
| Cc1ccc2c(c1)[n+]([O-])c(NCCN(C)C)n[n+]2[O-] | 3.99e-07 |
| Cc1ccc2c(c1)[n+]([O-])c(N)n[n+]2[O-] | 5.43e-07 |

INPUT: Report measured D; entry is `[O-][n+]1nc(NCCN2CCCCC2)[n+]([O-])c2ccccc21`
OUTPUT: 7.23e-07

INPUT: Report measured D; entry is `CCCN(CCC)CCNc1n[n+]([O-])c2ccc(C(C)(C)C)cc2[n+]1[O-]`
OUTPUT: 1.75e-06

###

A collection of compounds and their measured half-life
# assay text: Half life in CD1 mouse at 237 umol/kg, ip
# Format: ADME, organism-based
# condition context: in vivo
Param answer (str): number followed by unit.

| molecular string | half-life |
| --- | --- |
| CCOc1ccc2c(c1)[n+]([O-])c(NCCN1CCCCC1)n[n+]2[O-] | 40.1 min |

// moving on: another record for half-life
INPUT: Report measured half-life; entry is `Cc1ccc2c(c1)[n+]([O-])c(NCCN1CCCCC1)n[n+]2[O-]`
OUTPUT: 16.6 min

###

# assay text: AUC in CD1 mouse at 316 umol/kg, ip
# Type: ADME, organism-based
# condition context: plasma
quantity measured: AUC
Param answer (str): number followed by unit.

Examples with their reported AUC follow.
| molecular string | quantity measured | meas value |
| --- | --- | --- |
| CCCN(CCC)CCNc1n[n+]([O-])c2ccc(C)cc2[n+]1[O-] | AUC | 2.6 µM·h |
| CCc1ccc2c(c1)[n+]([O-])c(NCCN(C)C)n[n+]2[O-] | AUC | 13.2 µM·h |

// moving on: another record for AUC
INPUT: Report measured AUC; entry is `COc1ccc2c(c1)[n+]([O-])c(NCCN1CCCCC1)n[n+]2[O-]`
OUTPUT: 20.2 µM·h
